# TEST_SYSTEM: Torsin-1A-interacting protein 1 (Homo sapiens)
# ASSAY_INFO: compound microarray binding of lysate hLAP1 – cell lysate, small-molecule microarray, COS7 lysate, 635/667 nm fluorescence, primary screen (AID 1116)
# EXPERIMENTAL_PARAMETERS: 635 nm fluorescence, higher = more signal
Provide the reported composite z-score of each item.
Lab note: record just the number, no unit beside it.

Prompt: Please look up its composite z-score: C=CCOc1ccc([C@@H]2CC=C(C(=O)OCC)[C@H](c3cccc(Br)c3)N2S(=O)(=O)c2ccc(C)cc2)cc1
Completion: 0.644

Prompt: # input molecule: O=C1C2C=CC(C(O)c3cccc4ccccc34)N(Nc3ccccc3)C2C(=O)N1c1ccccc1 (stereo unspecified) ; wanted: its composite z-score
Completion: 0.759

Prompt: What value of composite z-score has been reported for the following molecule? CN(C)C(=O)[C@@]1(CCC(=O)OC(C)(C)C)N=C(c2ccc(OCCCO)cc2)O[C@H]1c1ccccc1N=[N+]=[N-]
Completion: 2.15

Prompt: Would you kindly share the measured composite z-score for CCOC(=O)C1=CC[C@@H](c2ccc(N(CC)CC)cc2)N(S(=O)(=O)c2ccc(C)cc2)[C@H]1c1ccc([N+](=O)[O-])cc1 ?
Completion: 0.923

Prompt: Report composite z-score for COCCOC(=O)N1C(=O)[C@@]2(c3cc(C#Cc4ccc(OC)cc4)ccc31)[C@H](C(=O)N1CCc3cc(OC)c(OC)cc3C1)[C@H]1C(=O)O[C@H](c3ccccc3)[C@H](c3ccccc3)N1[C@@H]2c1ccc(OCCO)cc1 please.
Completion: 0.247

Prompt: Which composite z-score value is on record for COCCOC(=O)N1C(=O)[C@@]2(c3cc(C#CCCO)ccc31)[C@H](c1ccc(OCCO)cc1)N1[C@H](c3ccccc3)[C@H](c3ccccc3)OC(=O)[C@H]1[C@@H]2C(=O)N1CCc2cc(OC)c(OC)cc2C1 ?
Completion: -0.0856
